// values below are reported fold induction at 50 µM
test system: E. cloacae; assay: AK assay 384-well format, Prestwick library screening; type: cell-based, Enterobacter cloacae; conditions: Enterobacter cloacae, 3 h; 50 μM final drug concentration; planktonic; cutoff for positive 3-fold increase; read-out: AK-based Prestwick Library Screening Results, E. cloacae (fold increase in extracellular AK activity)
Where a name gives a salt, the structure may show the parent alone.
measure: fold induction at 50 µM

1. NCC[C@H](O)C(=O)N[C@@H]1C[C@H](N)[C@@H](O[C@H]2O[C@H](CN)[C@@H](O)[C@H](O)[C@H]2O)[C@H](O)[C@H]1O[C@H]1O[C@H](CO)[C@@H](O)[C@H](N)[C@H]1O [Amikacin hydrate]    4.9
2. CCOc1ccc(NC(C)=O)cc1    1.4
3. CC(=O)N1CCN(c2ccc(OCC3COC(Cn4ccnc4)(c4ccc(Cl)cc4Cl)O3)cc2)CC1 (stereo not drawn)    1.5
4. Cc1ncc(C[n+]2csc(CCO)c2C)c(N)n1 [Thiamine hydrochloride]    1.3
5. CC1=NCCc2c1[nH]c1cc(O)ccc21 [Harmalol hydrochloride dihydrate]    1.6
6. Cc1cc(N)c2ccccc2[n+]1CCCCCCCCCC[n+]1c(C)cc(N)c2ccccc21 [Dequalinium dichloride]    1.8
7. COc1cc(NC(C)CCCN)c2ncccc2c1 (stereo not drawn) [Primaquine diphosphate]    1.4
8. C[C@@H]1O[C@@H](O[C@H]2[C@H](Oc3cc(O)c4c(c3)O[C@H](c3ccc(O)cc3)CC4=O)O[C@H](CO)[C@@H](O)[C@@H]2O)[C@H](O)[C@H](O)[C@H]1O [Naringin hydrate]    1.2
9. CN1CCCCC1CCN1c2ccccc2Sc2ccc([S+](C)[O-])cc21 (stereo not drawn) [Mesoridazine besylate]    1.3
10. COc1cc(N)c(Cl)cc1C(=O)NC1CCN(Cc2ccccc2)CC1 [Clebopride maleate]    1.6
11. Nc1nc2ncc(CNc3ccc(C(=O)N[C@@H](CCC(=O)O)C(=O)O)cc3)nc2c(=O)[nH]1    1.3
12. COc1ccc(CN2CCNCC2)c(OC)c1OC [Trimetazidine dihydrochloride]    1.7
13. CCc1oc2ccccc2c1C(=O)c1cc(Br)c(O)c(Br)c1    1.4
14. COc1ccc2[nH]cc(CCNC(C)=O)c2c1    1.4
15. CO[C@@]1(NC(=O)C2SC(=C(C(N)=O)C(=O)O)S2)C(=O)N2C(C(=O)O)=C(CSc3nnnn3C)CS[C@@H]21 (stereo partly drawn)    25.3
16. Cc1ccc(S(=O)(=O)NC(=O)NN2CCCCCC2)cc1 [Tolazamide]    1.6
17. N=C(N)c1ccc(OCCCCCOc2ccc(C(=N)N)cc2)cc1 [Pentamidine isethionate]    1.4
18. COc1ccc(OC)c(C(O)C(C)N)c1 (stereo not drawn) [Methoxamine hydrochloride]    1.4
19. CCCCC[C@H](O)/C=C/[C@@H]1[C@@H](C/C=C\CCCC(=O)O)[C@@H](O)C[C@H]1O    1.1
20. Cc1c2ccncc2c(C)c2c1[nH]c1ccccc12    1.8
21. CO[C@H]1/C=C/O[C@@]2(C)Oc3c(C)c(O)c4c(O)c(c(/C=N/N5CCN(C)CC5)c(O)c4c3C2=O)NC(=O)/C(C)=C\C=C\[C@H](C)[C@H](O)[C@@H](C)[C@@H](O)[C@@H](C)[C@H](OC(C)=O)[C@@H]1C    1.4

###

test system: A. baumannii strain 98-37-09; experiment: AK assay 384-well format, Prestwick library screening; assay type: cell-based, Acinetobacter baumannii; conditions: Acinetobacter baumannii, 983709, 3 h; planktonic A. baumannii; 50 μM final drug concentration; 384-well; cutoff for positive-scoring molecules 3-fold increase; read-out: AK-based Prestwick Library Screening Results: A. baumannii (increase in extracellular AK activity)
Where a name gives a salt, the structure may show the parent alone.
measure: fold induction at 50 µM

1. CN(C)c1ccc(O)c2c1C[C@H]1C[C@H]3[C@H](N(C)C)C(O)=C(C(N)=O)C(=O)[C@@]3(O)C(O)=C1C2=O [Minocycline hydrochloride]    3.9
2. CN(C)[C@@H]1C(O)=C(C(N)=O)C(=O)[C@@]2(O)C(O)=C3C(=O)c4c(O)cccc4[C@@](C)(O)[C@H]3C[C@@H]12 [Tetracycline hydrochloride]    4.4
3. Clc1ccc(Cn2c(CN3CCCC3)nc3ccccc32)cc1 [Clemizole hydrochloride]    1.6
4. CCC[C@@H]1C[C@@H](C(=O)N[C@@H]([C@H]2O[C@H](SC)[C@H](O)[C@@H](O)[C@H]2O)[C@H](C)Cl)N(C)C1 [Clindamycin hydrochloride]    1
5. CCN(CC)CCOC(=O)C(c1ccccc1)c1ccccc1 [Adiphenine hydrochloride]    1.3
6. COC(=O)Nc1nc2ccc(C(=O)c3ccccc3)cc2[nH]1 [Mebendazole]    0.7
7. Cc1cccc(N(C)C(=S)Oc2ccc3ccccc3c2)c1 [Tolnaftate]    1.5
8. COc1cc(Cc2cnc(N)nc2N)cc(OC)c1OC [Trimethoprim]    3.1

###

tested on: A. baumannii strain 98-37-09; experiment: AK assay 384-well format, Prestwick library screening; type: cell-based, Acinetobacter baumannii; details: Acinetobacter baumannii, 983709, 3 h; 50 μM final drug concentration; 384-well format; cutoff for positive-scoring molecules 3-fold increase; read-out: AK-based Prestwick Library Screening Results, A. baumannii (increase in extracellular AK activity)
Where a name gives a salt, the structure may show the parent alone.
Use fold induction at 50 µM to assign classes; range list: A (below 0.7), B (0.7 to below 1), C (1 or more)

1) CN1CCN(CC(=O)N2c3ccccc3C(=O)Nc3cccnc32)CC1 [Pirenzepine dihydrochloride]    C
2) Cc1ncc([N+](=O)[O-])n1CCO    A
3) Nc1cc(N2CCCCC2)nc(N)[n+]1[O-]    B
4) C[C@]12C=CC(=O)C=C1CC[C@H]1[C@@H]3C[C@@H](O)[C@](O)(C(=O)CO)[C@@]3(C)C[C@H](O)[C@@]12F    B
5) CC(NCCC(c1ccccc1)c1ccccc1)c1ccccc1 (stereo not drawn) [Fendiline hydrochloride]    C
6) NCc1ccc(S(N)(=O)=O)cc1 [Mafenide hydrochloride]    A
7) COc1ccc(C(=O)NCc2cccnc2)cc1C(=O)NCc1cccnc1 [Picotamide monohydrate]    B
8) Cc1cc(NS(=O)(=O)c2ccc(N)cc2)no1    C
9) COC(=O)Nc1nc2ccc(C(=O)c3cccs3)cc2[nH]1    A
10) Cc1ccccc1OCC(O)CO (stereo not drawn)    B
11) N[C@@H]1C[C@H]1c1ccccc1 [Tranylcypromine hydrochloride]    B
12) C#CCN(C)Cc1ccccc1 [Pargyline hydrochloride]    B
13) CC1=NS(=O)(=O)c2cc(Cl)ccc2N1 [Diazoxide]    A
14) COc1ccc2cc([C@H](C)C(=O)O)ccc2c1    C
15) NS(=O)(=O)c1cc2c(cc1Cl)NCNS2(=O)=O [Hydrochlorothiazide]    A

###

tested on: E. cloacae; assay: AK assay 384-well format, Prestwick library screening; type: cell-based, Enterobacter cloacae; details: Enterobacter cloacae, 3 h; planktonic E. cloacae; 50 μM final drug concentration; 384-well; cutoff for positive-scoring molecules 3-fold increase; read-out: AK-based Prestwick Library Screening Results: E. cloacae (increase in extracellular AK activity)
Counter-ions that a name gives are not always drawn.
# fold induction at 50 µM per record follows
measure: fold induction at 50 µM

1. C[C@]12CCC(=O)C=C1C=C[C@@H]1[C@@H]2CC[C@@]2(C)[C@H]1CC[C@@]2(O)CCC(=O)O [Canrenoic acid potassium salt]    1.2
2. CN[C@@H]1[C@H](O[C@H]2[C@H](O[C@H]3[C@H](O)[C@@H](O)[C@H](NC(=N)N)[C@@H](O)[C@@H]3NC(=N)N)O[C@@H](C)[C@]2(O)CO)O[C@@H](CO)[C@H](O)[C@H]1O [Dihydrostreptomycin sulfate]    1.3
3. O=C(Nc1ccccc1)OCC(CN1CCCCC1)OC(=O)Nc1ccccc1 (stereo not shown) [Diperodon hydrochloride]    1.4
4. OCCOCCN1CCN(C(c2ccccc2)c2ccc(Cl)cc2)CC1 (stereo not shown) [Hydroxyzine dihydrochloride]    1.6
5. Cc1c(NC(=O)c2cccnc2)c(=O)n(-c2ccccc2)n1C [Nifenazone]    1.2
6. CN(C)[C@@H]1C(O)=C(C(N)=O)C(=O)[C@@]2(O)C(O)=C3C(=O)c4c(O)ccc(Cl)c4[C@@](C)(O)[C@H]3C[C@@H]12 [Chlortetracycline hydrochloride]    1
7. CCCCN1CCCCC1C(=O)Nc1c(C)cccc1C (stereo not shown) [Bupivacaine hydrochloride]    1.5
8. Clc1ccc(COC(Cn2ccnc2)c2ccc(Cl)cc2Cl)c(Cl)c1 (stereo not shown) [Miconazole]    1.6
9. CO[C@@H]1[C@@H](O[C@@H]2O[C@H](C)[C@@H](O[C@H]3C[C@@](C)(O)[C@@H](OC(=O)CC(C)C)[C@H](C)O3)[C@H](N(C)C)[C@H]2O)[C@@H](CC=O)C[C@@H](C)[C@@H](O)/C=C/C=C/C[C@@H](C)OC(=O)C[C@H]1OC(C)=O [Josamycin]    1.4
10. CC[C@H]1OC(=O)[C@H](C)[C@@H](O[C@H]2C[C@@](C)(OC)[C@@H](O)[C@H](C)O2)[C@H](C)[C@@H](O[C@@H]2O[C@H](C)C[C@H](N(C)C)[C@H]2O)[C@](C)(O)C[C@@H](C)C(=O)[C@H](C)[C@@H](O)[C@]1(C)O [Erythromycin, erythromycin]    1.6
11. CN1CCOC(c2ccccc2)c2ccccc2C1 (stereo not shown) [Nefopam hydrochloride]    1.4
12. CN(C(=O)CN(CCO)CC(=O)N(C)C(C)(C)Cc1ccccc1)C(C)(C)Cc1ccccc1 [Oxethazaine]    1.5
13. Cc1ccc(Cl)c(Nc2ccccc2C(=O)O)c1Cl    1.4
